# Tested on: 186277-243-T-J2-PDC complex spheroid viability
# Experiment Description: Anticancer human tumor 186277-243-T-J2-PDC patient-derived colon adenocarcinoma cell line growth inhibition [GQUAD]
# Reported Conditions: second compound 10 µM; first compound 0.00316 µM; stronger effect = lower value
Measurement Type: viability, T/C (%)
The answer is to be given in %; state only the numeric part.

Report value: viability, T/C, system: 186277-243-T-J2-PDC complex spheroid viability, molecule: Cn1ncnc1[C@H]1c2n[nH]c(=O)c3cc(F)cc(c23)N[C@@H]1c1ccc(F)cc1 + Cc1cnc(CNC(=O)c2c(=O)c3ccc(N4CCCN(C)CC4)nc3n3c2sc2ccccc23)cn1 42.1

Report value: viability, T/C, system: 186277-243-T-J2-PDC complex spheroid viability, molecule: CC[C@@]1(O)C(=O)OCc2c1cc1n(c2=O)Cc2cc3c(CN(C)C)c(O)ccc3nc2-1 + Cc1cnc(CNC(=O)c2c(=O)c3ccc(N4CCCN(C)CC4)nc3n3c2sc2ccccc23)cn1 37.4

Report value: viability, T/C, system: 186277-243-T-J2-PDC complex spheroid viability, molecule: CC[C@@]1(O)C(=O)OCc2c1cc1n(c2=O)Cc2cc3c(CN(C)C)c(O)ccc3nc2-1 + CN(C)c1ccc(Nc2c3ccc(NC(=O)CCN4CCCC4)cc3nc3cc(NC(=O)CCN4CCCC4)ccc23)cc1 85.7

Report value: viability, T/C, system: 186277-243-T-J2-PDC complex spheroid viability, molecule: CC[C@@]1(O)C(=O)OCc2c1cc1n(c2=O)Cc2cc3c(CN(C)C)c(O)ccc3nc2-1 + Cc1[nH]c2ccc(F)cc2c1-c1nc2c3cccnc3c3ncccc3c2[nH]1 99.9

Report value: viability, T/C, system: 186277-243-T-J2-PDC complex spheroid viability, molecule: Cc1[nH]c2ccccc2c1CCNCc1ccc(/C=C/C(=O)NO)cc1 + Cc1cnc(CNC(=O)c2c(=O)c3ccc(N4CCCN(C)CC4)nc3n3c2sc2ccccc23)cn1 36.3

Report value: viability, T/C, system: 186277-243-T-J2-PDC complex spheroid viability, molecule: CCc1c2c(nc3ccc(O)cc13)-c1cc3c(c(=O)n1C2)COC(=O)[C@]3(O)CC + CN(C)c1ccc(Nc2c3ccc(NC(=O)CCN4CCCC4)cc3nc3cc(NC(=O)CCN4CCCC4)ccc23)cc1 63.1

Report value: viability, T/C, system: 186277-243-T-J2-PDC complex spheroid viability, molecule: CCc1c2c(nc3ccc(O)cc13)-c1cc3c(c(=O)n1C2)COC(=O)[C@]3(O)CC + Cc1[nH]c2ccc(F)cc2c1-c1nc2c3cccnc3c3ncccc3c2[nH]1 72.2

Report value: viability, T/C, system: 186277-243-T-J2-PDC complex spheroid viability, molecule: Cc1[nH]c2ccccc2c1CCNCc1ccc(/C=C/C(=O)NO)cc1 + Cc1[nH]c2ccc(F)cc2c1-c1nc2c3cccnc3c3ncccc3c2[nH]1 98.5

Report value: viability, T/C, system: 186277-243-T-J2-PDC complex spheroid viability, molecule: Cc1[nH]c2ccccc2c1CCNCc1ccc(/C=C/C(=O)NO)cc1 + CN(C)c1ccc(Nc2c3ccc(NC(=O)CCN4CCCC4)cc3nc3cc(NC(=O)CCN4CCCC4)ccc23)cc1 92.6

Report value: viability, T/C, system: 186277-243-T-J2-PDC complex spheroid viability, molecule: CCc1c2c(nc3ccc(O)cc13)-c1cc3c(c(=O)n1C2)COC(=O)[C@]3(O)CC + Cc1cnc(CNC(=O)c2c(=O)c3ccc(N4CCCN(C)CC4)nc3n3c2sc2ccccc23)cn1 32.5

Report value: viability, T/C, system: 186277-243-T-J2-PDC complex spheroid viability, molecule: Cn1ncnc1[C@H]1c2n[nH]c(=O)c3cc(F)cc(c23)N[C@@H]1c1ccc(F)cc1 + Cc1[nH]c2ccc(F)cc2c1-c1nc2c3cccnc3c3ncccc3c2[nH]1 103

Report value: viability, T/C, system: 186277-243-T-J2-PDC complex spheroid viability, molecule: Cn1ncnc1[C@H]1c2n[nH]c(=O)c3cc(F)cc(c23)N[C@@H]1c1ccc(F)cc1 + CN(C)c1ccc(Nc2c3ccc(NC(=O)CCN4CCCC4)cc3nc3cc(NC(=O)CCN4CCCC4)ccc23)cc1 92.3

====

# Tested on: 186277-243-T-J2-PDC complex spheroid viability
# Experiment Description: Anticancer human tumor 186277-243-T-J2-PDC cell line growth inhibition [GQUAD];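 note: spheroids exposed to drugs for 7 days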
# Reported Conditions: curve of first compound; second compound 0.1 µM
# Source text: DNA G-quadruplex Stabilizer Agents in Combinations in Complex Spheroids A high-throughput screen of multi-cell type tumor spheroids was designed to identify active combinations of DNA G-quadruplex stabilizer agents and targeted small molecules. […] Compounds. […] If the clinical Cmax for an agent had not been determined, the highest concentration tested was 10 microM. […]
Please provide measured IC50 for the entries that follow.
The answer is to be given in nM; state only the numeric part.

State its IC50 for this molecule: CC1COCCN1c1cc(-c2ccnn2C)c2ccnc(-c3ccn[nH]3)c2n1 (stereo not drawn) + Cc1[nH]c2ccc(F)cc2c1-c1nc2c3cccnc3c3ncccc3c2[nH]1 48.5

State its IC50 for this molecule: O=C(NO)c1cnc(N2CCN(S(=O)(=O)c3ccc4ccccc4c3)CC2)nc1 + CN(C)c1ccc(Nc2c3ccc(NC(=O)CCN4CCCC4)cc3nc3cc(NC(=O)CCN4CCCC4)ccc23)cc1 176

====

# Tested on: 186277-243-T-J2-PDC complex spheroid viability
# Experiment Description: Anticancer human tumor 186277-243-T-J2-PDC cell line growth inhibition [GQUAD];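 note: spheroids exposed to drugs for 7 days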;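 for viability, T/C: 100% = DMSO vehicle control viability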
# Reported Conditions: second compound 1 µM; first compound 1 µM; stronger effect = lower value
Measurement Type: viability, T/C

State its viability, T/C for this compound: Nc1ccn(C2OC(CO)C(O)C2(F)F)c(=O)n1 (stereo unspecified) + CN(C)c1ccc(Nc2c3ccc(NC(=O)CCN4CCCC4)cc3nc3cc(NC(=O)CCN4CCCC4)ccc23)cc1 6.93%

State its viability, T/C for this compound: O=c1[nH]cc(F)c(=O)[nH]1 + Cc1[nH]c2ccc(F)cc2c1-c1nc2c3cccnc3c3ncccc3c2[nH]1 87.7%

State its viability, T/C for this compound: COc1cc(C2c3cc4c(cc3C(OC3OC5COC(C)OC5C(O)C3O)C3COC(=O)C23)OCO4)cc(OC)c1O (stereo unspecified) + Cc1cnc(CNC(=O)c2c(=O)c3ccc(N4CCCN(C)CC4)nc3n3c2sc2ccccc23)cn1 44.9%

State its viability, T/C for this compound: CC(C)n1c(=O)n(C)c2cnc3cc(F)c(-c4ccc(OCCCN5CCCCC5)nc4)cc3c21 + Cc1[nH]c2ccc(F)cc2c1-c1nc2c3cccnc3c3ncccc3c2[nH]1 102%

State its viability, T/C for this compound: O=C(c1cc(Cc2n[nH]c(=O)c3ccccc23)ccc1F)N1CCN(C(=O)C2CC2)CC1 + CN(C)c1ccc(Nc2c3ccc(NC(=O)CCN4CCCC4)cc3nc3cc(NC(=O)CCN4CCCC4)ccc23)cc1 110%

State its viability, T/C for this compound: CC(C)(O)C1CCC(Nc2ccc3ncc(-c4cccc(C(F)(F)F)c4)n3n2)CC1 (stereo unspecified) + Cc1[nH]c2ccc(F)cc2c1-c1nc2c3cccnc3c3ncccc3c2[nH]1 107%

====

# System: 186277-243-T-J2-PDC complex spheroid viability
# Experiment Description: Anticancer human tumor 186277-243-T-J2-PDC cell line growth inhibition [GQUAD];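 note: spheroids exposed to drugs for 7 days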;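 for viability, T/C: 100% = DMSO vehicle control viability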
# Reported Conditions: second compound 0.1 µM; first compound 0.0316 µM; stronger effect = lower value
Please provide measured viability, T/C for the entries that follow.
The answer is to be given in %; state only the numeric part.

Report value: viability, T/C, system: 186277-243-T-J2-PDC complex spheroid viability, molecule: CC[C@@]1(O)C(=O)OCc2c1cc1n(c2=O)Cc2cc3c(CN(C)C)c(O)ccc3nc2-1 + CN(C)c1ccc(Nc2c3ccc(NC(=O)CCN4CCCC4)cc3nc3cc(NC(=O)CCN4CCCC4)ccc23)cc1 70.9

Report value: viability, T/C, system: 186277-243-T-J2-PDC complex spheroid viability, molecule: CC(=O)O[C@H]1C(=O)[C@@]2(C)[C@H]([C@H](OC(=O)c3ccccc3)[C@]3(O)C[C@H](OC(=O)[C@H](O)[C@@H](NC(=O)c4ccccc4)c4ccccc4)C(C)=C1C3(C)C)[C@]1(OC(C)=O)CO[C@@H]1C[C@@H]2O + Cc1cnc(CNC(=O)c2c(=O)c3ccc(N4CCCN(C)CC4)nc3n3c2sc2ccccc23)cn1 26.4

Report value: viability, T/C, system: 186277-243-T-J2-PDC complex spheroid viability, molecule: C=CCn1c(=O)c2cnc(Nc3ccc(N4CCN(C)CC4)cc3)nc2n1-c1cccc(C(C)(C)O)n1 + Cc1cnc(CNC(=O)c2c(=O)c3ccc(N4CCCN(C)CC4)nc3n3c2sc2ccccc23)cn1 49.1
